Data origin, for the record: patent US6337344B1

Catalogue of compounds with associated melting point
Counter-ions that a name gives are not always drawn.

COC(=O)c1cccc(CNC(=O)c2cc3c(O)cccc3n2Cc2cccc(C(=N)N)c2)c1 (as salt: trifluoroacetic acid salt) yielded melting point of 95 °C

Data point: CC(=O)O.CC(=O)[O-].C[N+](C)(C)c1ccc(CNC(=O)c2cc3cc(F)ccc3n2Cc2cccc(C(=N)N)c2)cc1 ; melting point = 172 °C (dec.)

Measured melting point, CC(=O)O.CC(=O)[O-].C[N+](C)(C)c1ccc(CNC(=O)c2cc3c(Br)cccc3n2Cc2cccc(C(=N)N)c2)cc1 : 145 °C (dec.)

Lab note: C[N+](C)(C)c1ccc(CNC(=O)c2cc3cc(OCc4ccccc4)ccc3n2Cc2cccc(C(=N)N)c2)cc1.O=C(O)C(F)(F)F.O=C([O-])C(F)(F)F gave melting point of 60 °C (dec.)

Record CC(=O)O.N=C(N)c1cccc(Cn2c(C(=O)NCc3ccccc3)cc3ccccc32)c1 , field melting point: 266 to 268 °C (dec.)
